Cited source for all entries: patent US20230348603A1

Each entry below lists one item and its recorded Kd value.
Target: T1, Cynomolgus Monkey VSIG4-L-His (cynomolgus monkey)
T1 construct: ECD with His tag; also called cyVSIG4-L; cyno VSIG4-L-His
T1 chain: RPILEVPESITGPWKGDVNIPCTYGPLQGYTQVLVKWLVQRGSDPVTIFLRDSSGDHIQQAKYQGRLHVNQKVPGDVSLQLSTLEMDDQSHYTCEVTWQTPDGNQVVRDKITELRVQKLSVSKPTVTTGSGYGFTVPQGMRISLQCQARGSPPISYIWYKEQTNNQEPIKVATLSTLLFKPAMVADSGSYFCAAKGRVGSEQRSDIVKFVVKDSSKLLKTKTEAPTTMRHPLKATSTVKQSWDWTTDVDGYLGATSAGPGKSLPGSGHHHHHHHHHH
Test: BLI (Octet), IgG on AHC sensor, antigen 100 nM
measuredMetric: Kd

INSERT INTO measurements (binder, result) VALUES
  ('12A08 mouse/human chimeric IgG4 (S228P) kappa (antibody, V domains shown) VH: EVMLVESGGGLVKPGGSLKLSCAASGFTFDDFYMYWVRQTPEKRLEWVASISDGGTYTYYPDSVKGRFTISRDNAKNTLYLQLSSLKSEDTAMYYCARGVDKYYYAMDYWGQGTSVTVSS VL: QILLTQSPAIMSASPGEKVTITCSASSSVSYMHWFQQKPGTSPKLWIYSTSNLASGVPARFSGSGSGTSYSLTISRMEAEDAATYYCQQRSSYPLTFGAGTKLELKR', '15.7 nM'),
  ('14C05 mouse/human chimeric IgG4 (S228P) kappa (antibody, V domains shown) VH: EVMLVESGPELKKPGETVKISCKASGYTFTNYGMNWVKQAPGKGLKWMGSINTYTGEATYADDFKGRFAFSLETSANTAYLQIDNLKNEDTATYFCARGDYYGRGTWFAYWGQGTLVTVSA VL: ETTVTQSHKFMSTSVGDRVSITCKASQDVSTAVAWYQQKPGQSPKLLIYSASYRYPGVPDRFTGSGSGTDFTFTISSVQAEDLAVYYCQQDYSSPWTFGGGTKLEIKR', '30 nM'),
  ('15C04 mouse/human chimeric IgG4 (S228P) kappa (antibody, V domains shown) VH: QIQLQESGPSLVRPSQTLSLTCSVTGDSITSGYWNWIRKFPGDKLEYLGYISYSGFTYYNPSLKSRISITRDTSKNQYYLQLNSVTTEDTATYYCASSYYGSSLGFPYWGQGTLVTVSA VL: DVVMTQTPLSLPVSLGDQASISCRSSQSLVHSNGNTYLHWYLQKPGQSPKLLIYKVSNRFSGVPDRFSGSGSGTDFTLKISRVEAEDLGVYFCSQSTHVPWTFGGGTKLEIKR', '183 nM');
